# system.name: Ras-related C3 botulinum toxin substrate 1 (Mus musculus, UniProt P63001)
# assay.summary: analog inhibition of wildtype Rac1 nucleotide loading – biochemical, additional analogs, multiplex bead flow cytometry, SAR follow-up (AID 2040)
Checkbox rule: EC50 lower than 30 µM = fulfilled; EC50 not lower than 30 µM = not fulfilled.

{"compound.structure.string": "O=C1NC(=O)/C(=C2/C(=O)Nc3ccccc32)N1", "label.value": "fulfilled"}
{"compound.structure.string": "O=C1Nc2ccc(Br)cc2C1=C1Nc2ccccc2C1=O", "label.value": "fulfilled"}
{"compound.structure.string": "O=C1NC(=S)N/C1=C1\\C(=O)Nc2ccccc21", "label.value": "fulfilled"}
{"compound.structure.string": "O=C1Nc2c(F)cccc2C1=C1Nc2ccccc2C1=O", "label.value": "not fulfilled"}

* * *

The entries below are paired with their reported EC50.
# system.name: UniProtKB P63001
# assay.summary: analog inhibition of wildtype Rac1 nucleotide loading – biochemical, additional analogs, multiplex bead flow cytometry, SAR follow-up (AID 2040)
# measurement.conditions: inactive by the depositor's call

{"compound.structure.string": "N#Cc1ccc(C(=O)C#Cc2ccccc2)cc1", "system.name": "UniProtKB P63001", "unit.tag": "µM", "EC50": 30}
{"compound.structure.string": "CCCCS(=O)(=O)n1c(N)c(C#N)c(-c2cc(OC)c(OC)c(OC)c2)c1C(=O)c1ccccc1", "system.name": "UniProtKB P63001", "unit.tag": "µM", "EC50": 30}
{"compound.structure.string": "COC(=O)c1ccc(C(=O)C#Cc2ccccc2)cc1", "system.name": "UniProtKB P63001", "unit.tag": "µM", "EC50": 30}
{"compound.structure.string": "COc1ccc(S(=O)(=O)n2c(N)c(C#N)c(-c3ccccc3)c2C(=O)c2ccc(Br)cc2)cc1", "system.name": "UniProtKB P63001", "unit.tag": "µM", "EC50": 30}
{"compound.structure.string": "CSc1ccc(/C=C2/C(C)=C(CC(=O)O)c3cc(F)ccc32)cc1", "system.name": "UniProtKB P63001", "unit.tag": "µM", "EC50": 54.7}
{"compound.structure.string": "O=C(C#Cc1ccccc1)c1ccc(F)cc1", "system.name": "UniProtKB P63001", "unit.tag": "µM", "EC50": 30}
{"compound.structure.string": "O=C(C#Cc1ccccc1)c1ccccc1", "system.name": "UniProtKB P63001", "unit.tag": "µM", "EC50": 30}
{"compound.structure.string": "COc1ccc(S(=O)(=O)n2c(N)c(C#N)c(-c3cncc(Br)c3)c2C(=O)c2ccccc2)cc1", "system.name": "UniProtKB P63001", "unit.tag": "µM", "EC50": 9.84}
{"compound.structure.string": "N#Cc1c(-c2ccc(Cl)cc2)c(C(=O)c2ccccc2)n(S(=O)(=O)c2ccc([N+](=O)[O-])cc2)c1N", "system.name": "UniProtKB P63001", "unit.tag": "µM", "EC50": 30}
{"compound.structure.string": "O=C(C#Cc1ccccc1)c1ccc([N+](=O)[O-])cc1", "system.name": "UniProtKB P63001", "unit.tag": "µM", "EC50": 30}

* * *

Recorded EC50 for the following compounds
# system.name: Ras-related C3 botulinum toxin substrate 1 (Mus musculus, UniProt P63001)
# assay.summary: analog inhibition of wildtype Rac1 nucleotide loading – biochemical, additional analogs, multiplex bead flow cytometry, SAR follow-up (AID 2040)
# measurement.conditions: inactive by the depositor's call

{"compound.structure.string": "CC(=O)Oc1ccccc1C(=O)O", "EC50": "30 µM"}
{"compound.structure.string": "COc1ccc(C(=O)C#Cc2ccccc2)cc1", "EC50": "30 µM"}
{"compound.structure.string": "COc1cc(-c2c(C#N)c(N)n(S(=O)(=O)c3c(C(C)C)cc(C(C)C)cc3C(C)C)c2C(=O)c2ccccc2)cc(OC)c1OC", "EC50": "75.3 µM"}
{"compound.structure.string": "O=[N+]([O-])c1ccc(C#Cc2ccccc2)cc1", "EC50": "30 µM"}
{"compound.structure.string": "O=C(C#Cc1ccccc1)c1cccnc1", "EC50": "30 µM"}
